List of cell viability values.
system: K562; test: cell viability relative to vehicle control; higher = less cytotoxic; settings: 10 µM; SRSF2 genotype: SRSF2 wt/wt;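 further: after 48 h exposure read by CellTiter-Glo luminescence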
Reply numerically in %, unit not repeated.

- compound: "CC(=O)O[C@@]12CO[C@@H]1C[C@H](O)[C@@]1(C)C(=O)[C@H](O)C3=C(C)[C@@H](OC(=O)[C@H](O)[C@@H](NC(=O)c4ccccc4)c4ccccc4)C[C@@](O)([C@@H](OC(=O)c4ccccc4)[C@H]21)C3(C)C"
  value kind: "cell viability"
  observed value: 34.3
- compound: "COCC1(CO)C(=O)C2CCN1CC2 (stereo not drawn)"
  value kind: "cell viability"
  observed value: 63.5
- compound: "C=C[C@H]1CN2CC[C@H]1C[C@H]2[C@H](O)c1ccnc2ccccc12"
  value kind: "cell viability"
  observed value: 94.8

Task item: Return cell viability (reported value) for this compound: `COc1ccc(C=O)cc1`
Reply: 111

Task item: Retrieve cell viability measured for CCOC(=O)Nc1ccc(NCc2ccc(F)cc2)cc1N [Retigabine 2HCl] and print it.
Reply: 97.4

Task item: Identify the reported cell viability for the following entry. NCC(CC(=O)O)c1ccccc1 (stereo not drawn)
Reply: 102
